Each recorded value in this set is attributed to paper PMC5540273.

Test system: CAMK2D;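 further: kd values determined as follow-up on hits from a single-replicate KINOMEscan panel screen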
pKd: −log10 of the molar value.
Property: pKd; scope: individual compounds

compound="Cc1cccc(-c2nc(C)cc(Nc3ccncc3)n2)n1 [GSK257997]" endpoint_label=pKd reported_value="< 5.00"

[Q] Request the reported pKd associated with Cc1cc(-c2ccc3c(c2)CC[C@@H](N[C@@H](C)c2ccccc2)C3)cnc1N.Cl [GW412617]
[A] < 5.00

----------
Property: %Inh; scope: individual molecules
System: CLK1
Settings: concentration: 1 μM, replicates: in singlicate; n = 1
Respond with the bare value in %.

Below, 3 molecules whose answers are already recorded.
molecule="CS(=O)(=O)c1ccc(-c2nc3n(c2-c2ccncc2)CCC3)cc1 [SKF-105942]" reported_value=11
molecule="CCn1c(-c2ccccn2)nc2cnccc21 [SB-736398]" reported_value=3
molecule="COc1cc2ncn(-c3cc(OCC4CCCO4)c(C(N)=O)s3)c2cc1OC (centres unmarked) [GSK204607]" reported_value=22

[Q] Request the reported %Inh associated with Fc1cc(Cl)ccc1Nc1ccnc2cc(-c3ccc(CN4CCCCC4)o3)ccc12 [GW560116]
[A] 11

[Q] Repeat for the following molecule: Cc1cccc(-c2nc(Nc3ccncc3)c3ccccc3n2)n1 [GW855857]
[A] 10

----------
Test system: CIT
Conditions: concentration: 1 μM, replicates: in singlicate; n = 1
ENDPOINT_LABEL: %Inh
I'd appreciate it if you wrote the number followed by its unit.

[Q] Request the reported %Inh associated with "Cn1ccc2ncnc(Oc3cccc(C(=O)Nc4ccccc4)c3)c21"
[A] 8%

[Q] Repeat for the following compound: "Cl.c1ccc(-c2n[nH]cc2-c2ccnc(-c3ccc(CN4CCOCC4)cc3)c2)nc1"
[A] 10%

[Q] Repeat for the following compound: "Cc1cc(NCC(c2ccccc2)c2ccccc2)nc(NCc2ccc(C(F)(F)F)cc2)n1"
[A] 30%

[Q] Repeat for the following compound: "Cn1ccc2ncnc(Oc3ccc(Nc4nc5ccccc5[nH]4)cc3)c21"
[A] 8%

[Q] Repeat for the following compound: COc1ccc(CNC(=O)NC2CCN(c3ccnc(Nc4cc(OC)c(OC)c(OC)c4)n3)C2)cc1 (centres unmarked)
[A] 20%

----------
System: AAK1
Settings: concentration: 1 μM, replicates: in singlicate; n = 1
I would appreciate it if you labelled entries MET when %Inh is 30% or higher, otherwise NOT MET.

compound="Cc1nnc(-c2ccc3occ(-c4ccc(S(C)=O)cc4)c3c2)[nH]1 (centres unmarked)" qualitative_label="NOT MET"
compound=Cn1ccc2ncnc(Oc3ccc(Nc4nc5ccccc5[nH]4)cc3)c21 qualitative_label="NOT MET"
compound="COc1ccc(CNC(=O)NC2CCN(c3ccnc(Nc4cc(OC)c(OC)c(OC)c4)n3)C2)cc1 (centres unmarked)" qualitative_label=MET
compound=Cn1ccc2ncnc(Oc3cccc(C(=O)Nc4ccccc4)c3)c21 qualitative_label="NOT MET"
compound=Cc1cccc(-c2nc(-c3ccc(S(C)(=O)=O)cc3)sc2-c2ccnc(NCCc3ccccc3)c2)c1 qualitative_label="NOT MET"
compound=Cc1csc(-c2nc(Nc3ccncc3)c3ccccc3n2)n1 qualitative_label=MET

[Q] Could you tell me if the measured %Inh of "Fc1cccc(COc2nnc(-c3ccc4c(c3)CCO4)o2)c1" reaches 30% or more?
[A] NOT MET

[Q] Repeat for the following compound: "COc1ccc(Nc2nccc(-c3cccc(NC(=O)c4cc5cc(F)ccc5[nH]4)c3)n2)cc1"
[A] MET
